# assay-system: UniProt P42336
pIC50: −log10 of the molar value.
Class (by pIC50) -- bottom bin: < 6; middle bin: ≥ 6 and < 7; top bin: ≥ 7

// known answers, use as guide
cpd-smiles | assay-system | answer-label
Cn1cc(/C=C2\Oc3cc(O)cc(O)c3C2=O)c2c(-c3cccc(C(=O)N4CCCC4)c3)ccnc21 | UniProt P42336 | top bin
Cn1cc(/C=C2\Oc3cccc(O)c3C2=O)c2c(N3CCC(C(=O)N4CCCC4)CC3)ccnc21 | UniProt P42336 | top bin
Cn1cc(/C=C2\Oc3cc(O)cc(O)c3C2=O)c2c(-c3cccc(S(=O)(=O)N4CCCCC4)c3)ccnc21 | UniProt P42336 | top bin
CN(C(=O)C1CCN(c2ccnc3c2c(/C=C2\Oc4ccc(NC(=O)Nc5cccnc5)cc4C2=O)cn3C)CC1)c1cccnc1 | UniProt P42336 | bottom bin
CNC(=O)Nc1ccc2c(c1)C(=O)/C(=C/c1cn(C)c3nccc(-c4ccccc4)c13)O2 | UniProt P42336 | middle bin

Prompt: Just checking, what class would you give Cn1cc(/C=C2\Oc3cccc(NC(=O)C(C)(C)C)c3C2=O)c2c(-c3ccccc3)ccnc21 here?
Response: bottom bin

Prompt: Could you tell me which band Cn1cc(/C=C2\Oc3cccc(N)c3C2=O)c2c(-c3ccccc3)ccnc21 belongs to?
Response: bottom bin

---

# assay-system: PI3Kα (Homo sapiens)
# Sequence (P42336 whole entry, species assumed): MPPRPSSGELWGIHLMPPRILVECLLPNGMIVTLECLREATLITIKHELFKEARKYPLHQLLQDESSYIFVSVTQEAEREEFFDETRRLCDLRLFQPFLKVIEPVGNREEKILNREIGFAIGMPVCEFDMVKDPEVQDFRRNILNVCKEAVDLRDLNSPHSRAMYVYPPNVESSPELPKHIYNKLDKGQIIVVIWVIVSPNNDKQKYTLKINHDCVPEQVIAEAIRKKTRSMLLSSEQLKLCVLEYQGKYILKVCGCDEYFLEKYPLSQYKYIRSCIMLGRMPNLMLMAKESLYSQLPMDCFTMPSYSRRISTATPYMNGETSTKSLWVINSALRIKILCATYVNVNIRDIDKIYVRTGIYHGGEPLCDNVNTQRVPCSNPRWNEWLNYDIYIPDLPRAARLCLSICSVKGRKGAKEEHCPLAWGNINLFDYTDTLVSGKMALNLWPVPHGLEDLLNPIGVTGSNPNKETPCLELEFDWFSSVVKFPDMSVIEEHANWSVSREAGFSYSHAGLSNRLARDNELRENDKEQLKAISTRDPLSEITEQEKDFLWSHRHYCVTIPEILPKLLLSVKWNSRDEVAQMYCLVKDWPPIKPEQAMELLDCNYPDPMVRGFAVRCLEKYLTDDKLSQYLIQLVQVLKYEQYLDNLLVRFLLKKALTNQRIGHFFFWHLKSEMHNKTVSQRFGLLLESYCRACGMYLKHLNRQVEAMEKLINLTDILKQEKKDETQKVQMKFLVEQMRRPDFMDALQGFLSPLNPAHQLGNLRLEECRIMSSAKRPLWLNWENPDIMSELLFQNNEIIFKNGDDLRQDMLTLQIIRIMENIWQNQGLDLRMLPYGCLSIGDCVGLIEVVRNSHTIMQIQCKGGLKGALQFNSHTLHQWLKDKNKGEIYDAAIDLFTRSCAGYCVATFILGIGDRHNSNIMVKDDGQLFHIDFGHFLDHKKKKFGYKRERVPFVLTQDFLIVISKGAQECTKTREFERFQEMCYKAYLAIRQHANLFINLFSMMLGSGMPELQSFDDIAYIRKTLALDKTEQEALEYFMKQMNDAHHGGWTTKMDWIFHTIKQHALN
# Sequence (P27986 whole entry partner, species assumed): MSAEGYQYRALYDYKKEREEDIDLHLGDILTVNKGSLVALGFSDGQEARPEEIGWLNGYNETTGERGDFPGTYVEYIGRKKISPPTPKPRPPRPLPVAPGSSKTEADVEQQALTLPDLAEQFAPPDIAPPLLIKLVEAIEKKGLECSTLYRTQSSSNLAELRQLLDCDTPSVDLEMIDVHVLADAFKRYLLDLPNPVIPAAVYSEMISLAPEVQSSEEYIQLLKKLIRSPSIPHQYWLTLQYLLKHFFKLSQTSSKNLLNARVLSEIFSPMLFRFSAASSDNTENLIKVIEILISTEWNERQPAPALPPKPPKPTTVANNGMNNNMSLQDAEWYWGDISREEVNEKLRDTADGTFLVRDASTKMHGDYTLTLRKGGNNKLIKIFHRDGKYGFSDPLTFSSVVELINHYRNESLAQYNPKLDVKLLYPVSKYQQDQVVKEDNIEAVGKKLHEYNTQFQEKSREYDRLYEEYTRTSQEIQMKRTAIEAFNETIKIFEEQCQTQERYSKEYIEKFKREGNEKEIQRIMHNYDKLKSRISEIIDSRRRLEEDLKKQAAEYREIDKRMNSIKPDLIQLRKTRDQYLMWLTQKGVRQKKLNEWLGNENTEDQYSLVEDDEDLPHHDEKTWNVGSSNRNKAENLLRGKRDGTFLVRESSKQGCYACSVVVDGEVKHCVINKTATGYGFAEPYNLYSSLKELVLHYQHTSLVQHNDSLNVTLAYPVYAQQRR
pIC50: −log10 of the molar value.
Label 1.0 for high-side pIC50 (at or above 6) and 0.0 for low-side pIC50 (below it).

For orientation, consider the following solved cases.
compound | answer-label
CN(Cc1ccccn1)C(=O)C1CCN(c2ccnc3c2c(/C=C2\Oc4ccc(NC(=O)Nc5cccnc5)cc4C2=O)cn3C)CC1 | 0.0
CN(CCO)C(=O)c1ccc(-c2ccnc3c2c(/C=C2\Oc4cccc(O)c4C2=O)cn3C)cc1 | 1.0
Cn1cc(/C=C2\Oc3ccc(NC(=O)Nc4cccnc4)cc3C2=O)c2c(N3CCC(C(=O)Nc4ccncc4)CC3)ccnc21 | 0.0
Cn1cc(/C=C2\Oc3cccc(O)c3C2=O)c2c(-c3cccc(C(=O)Nc4ccc(F)cc4)c3)ccnc21 | 1.0
CN(C)c1ccc(-c2ccnc3c2c(/C=C2\Oc4cc(O)cc(O)c4C2=O)cn3C)cc1 | 1.0
Cn1cc(/C=C2\Oc3cccc(O)c3C2=O)c2c(-c3ccc(N4CCOCC4)nc3)ccnc21 | 1.0

Prompt: Dear colleague, could you confirm whether CN1CCN(NC(=O)Nc2ccc3c(c2)C(=O)/C(=C/c2cn(C)c4nccc(N5CCC(C(=O)N(C)C)CC5)c24)O3)CC1 has pIC50 at or above 6?
Response: 1.0

Prompt: Is the recorded value of pIC50 equal to or greater than 6 for this compound? CN(C)C1CCN(C(=O)C2CCN(c3ccnc4c3c(C=C3Oc5ccc(NC(=O)Nc6cccnc6)cc5C3=O)cn4C)CC2)C1 (stereo not drawn)
Response: 0.0

---

# assay-system: mTOR (Homo sapiens, UniProt P42345)
# test-summary: mTOR enzyme assay (DELFIA format, His6-S6K substrate)
# Type: biochemical
measure-name: pIC50
When answering, recall that pIC50 equals minus log10 of the concentration in mol/L, and write that number alone.

Here is how some compounds turned out for pIC50.
cpd-smiles | pIC50
Cn1cc(/C=C2\Oc3ccc(NC(=O)Nc4cccnc4)cc3C2=O)c2c(N3C4CCC3COC4)ccnc21 | 7.38
CNC(=O)Nc1ccc2c(c1)C(=O)/C(=C/c1cn(CCN3CCN(C)CC3)c3ncc(OC)cc13)O2 | 6.55
Cn1cc(/C=C2\Oc3cccc(O)c3C2=O)c2c(N3C4CCC3COC4)ccnc21 | 8.68

# ---- query compound ----
Prompt: Quote pIC50 reported for Cc1cccc(CN(C)C(=O)C2CCN(c3ccnc4c3c(/C=C3\Oc5ccc(NC(=O)Nc6cccnc6)cc5C3=O)cn4C)CC2)n1 please.
Response: 7.31
